# targetOrSystem: TLR1/2 (Homo sapiens (Human), UniProt O60603+Q15399)
# Sequence (Q15399 25-786): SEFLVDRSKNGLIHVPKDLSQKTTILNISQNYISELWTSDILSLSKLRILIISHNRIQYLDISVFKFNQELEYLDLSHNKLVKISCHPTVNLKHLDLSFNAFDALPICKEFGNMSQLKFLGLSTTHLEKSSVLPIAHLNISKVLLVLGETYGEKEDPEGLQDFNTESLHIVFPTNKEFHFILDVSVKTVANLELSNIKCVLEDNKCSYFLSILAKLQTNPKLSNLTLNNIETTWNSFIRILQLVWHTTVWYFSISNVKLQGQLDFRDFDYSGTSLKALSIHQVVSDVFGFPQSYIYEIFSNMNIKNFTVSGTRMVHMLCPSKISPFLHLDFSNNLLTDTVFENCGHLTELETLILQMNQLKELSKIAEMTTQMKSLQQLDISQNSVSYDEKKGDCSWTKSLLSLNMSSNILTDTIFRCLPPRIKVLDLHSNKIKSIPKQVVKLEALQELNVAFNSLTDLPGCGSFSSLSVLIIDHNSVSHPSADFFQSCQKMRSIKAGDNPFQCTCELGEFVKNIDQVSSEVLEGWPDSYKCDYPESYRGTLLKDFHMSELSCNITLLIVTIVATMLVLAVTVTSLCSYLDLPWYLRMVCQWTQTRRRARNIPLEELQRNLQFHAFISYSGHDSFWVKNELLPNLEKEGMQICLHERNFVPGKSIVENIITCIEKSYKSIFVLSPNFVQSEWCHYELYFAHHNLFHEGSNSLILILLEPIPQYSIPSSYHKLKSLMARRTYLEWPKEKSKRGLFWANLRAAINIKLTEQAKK
# Sequence (O60603 19-784): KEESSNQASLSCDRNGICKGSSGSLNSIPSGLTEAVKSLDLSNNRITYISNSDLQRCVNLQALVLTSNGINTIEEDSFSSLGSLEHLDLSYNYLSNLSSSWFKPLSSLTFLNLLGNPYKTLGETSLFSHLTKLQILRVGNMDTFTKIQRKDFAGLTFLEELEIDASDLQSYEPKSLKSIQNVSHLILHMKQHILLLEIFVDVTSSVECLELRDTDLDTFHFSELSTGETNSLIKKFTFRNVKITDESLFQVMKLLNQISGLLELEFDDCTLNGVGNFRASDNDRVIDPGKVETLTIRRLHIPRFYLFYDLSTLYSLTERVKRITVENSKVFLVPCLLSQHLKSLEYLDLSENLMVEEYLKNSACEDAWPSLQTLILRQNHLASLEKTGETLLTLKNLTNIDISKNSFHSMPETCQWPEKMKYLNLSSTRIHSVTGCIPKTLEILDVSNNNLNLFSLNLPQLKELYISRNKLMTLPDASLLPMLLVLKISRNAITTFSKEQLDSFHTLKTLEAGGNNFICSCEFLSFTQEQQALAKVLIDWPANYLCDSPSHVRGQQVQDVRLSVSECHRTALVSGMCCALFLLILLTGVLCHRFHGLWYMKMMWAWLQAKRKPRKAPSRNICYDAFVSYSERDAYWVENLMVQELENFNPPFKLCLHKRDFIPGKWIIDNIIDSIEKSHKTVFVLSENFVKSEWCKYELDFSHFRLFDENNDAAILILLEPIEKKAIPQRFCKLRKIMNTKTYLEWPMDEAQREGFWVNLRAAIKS
# experimentDescription: Detection of TLR1/2 activation activity (SEAP signal) using TLR1/2 HEK BLUE cells
# testContext: HEK BLUE TLR1/2 cells, 24 hours, SEAP read at 620 nm; highest concentration 100 μM; [‡] highest SEAP signal less than 50% of the activation value of compound 22
# Procedure: TLR1/2 activation activity was detected using TLR1/2 HEK BLUE cells. TLR1/2 HEK BLUE cells were cultured in DMEM medium containing 10% fetal bovine serum, 1% penicillin and streptomycin, and incubated in a 37° C. cell incubator containing 5% CO2. HEK BLUE TLR1/2 cells were spread in a 384-well plate at 20,000 cells/well, cultured at 37° C., 5% CO2 for 24 hours, 25 μL per well. When the cells grew well, 100 μM compound and doubling-diluted for 11 concentration gradients. […]
measurementLabel: EC50

The following compounds have reported results that may help.
[[record]]
compound = "CNc1ccc([N+](=O)[O-])cc1-n1cnc(-c2ccc(C(F)(F)F)cc2OC(C)=O)c1 [Compound 35]"
datavalue = "18.8 nM"

[[record]]
compound = "CCOc1cc(C(F)(F)F)ccc1-c1cn(-c2cc([N+](=O)[O-])ccc2NC)cn1 [Compound 29]"
datavalue = "> 1000 nM"

[[record]]
compound = "CCCCCCCCCCCC(=O)Oc1cc(C(F)(F)F)ccc1-c1cn(-c2cc([N+](=O)[O-])ccc2NC)cn1 [Compound 37]"
datavalue = "113 nM"

[[record]]
compound = "CNc1c(Cl)cc([N+](=O)[O-])cc1-n1cnc(-c2ccc(C(F)(F)F)cc2O)c1 [Compound 26]"
datavalue = "192 nM"

[[record]]
compound = "CNc1ccc([N+](=O)[O-])cc1-n1cnc(-c2ccc(C(F)(F)F)cc2OCc2ccccc2)c1 [Compound 30]"
datavalue = "> 1000 nM"


Please supply EC50 for each of the following items, keeping them in order.
1. CNc1ccc([N+](=O)[O-])cc1-n1cnc(-c2ccc(C(F)(F)F)cc2OCC(N)=O)c1 [Compound 42]
2. FC(F)(F)c1ccc(-c2csc(-c3ccccc3)n2)cc1 [Compound 3]
3. FC(F)(F)c1ccc(-c2csc(-c3cccc(C(F)(F)F)c3)n2)cc1 [Compound 4]

result:
["> 1000 nM", "> 1000 nM", "> 1000 nM"]
